All values here come from patent US20180208664A1.

study.target: T1, APG293 (human CD95L-T4) (human)
T1 chain: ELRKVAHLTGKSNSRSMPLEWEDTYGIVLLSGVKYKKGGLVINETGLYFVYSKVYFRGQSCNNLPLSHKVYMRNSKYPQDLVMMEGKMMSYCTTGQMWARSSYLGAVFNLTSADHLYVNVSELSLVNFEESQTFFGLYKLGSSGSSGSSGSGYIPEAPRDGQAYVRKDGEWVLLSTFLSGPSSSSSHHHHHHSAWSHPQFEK
protocol.summary: cell-based or functional assay
measure: EC50, Assay 2: antagonism of CD95L-T4-induced apoptosis on Jurkat A3 cells (µg/mL)

binder	quantitative.readout
APG101 (Fc fusion, UniProt P25445 26-173, looked up, not shown: a dimerising Fc or GST) QVTDINSKGLELRKTVTTVETQNLEGLHHDGQFCHKPCPPGERKARDCTVNGDEPDCVPCQEGKEYTDKAHFSSKCRRCRLCDEGHGLEVEINCTRTQNTKCRCKPNFFCNSTVCEHCDPCTKCEHGIIKECTLTSNTKCKEEGSRSN	0.789
rabbit monoclonal anti-CD95L antibody clone 145-12 (antibody, V domains shown, Rabbit monoclonal IgG from a hybridoma subclone; Only VH and VL are tied to the clone by name; also called mAB145-12; mAb145-12) VH: QSLEESGGDLVKPGASLTLTCTASGFSFSSGYDMCWVRQAPGKGLEWIACIDTDNDATYYASWAKGRFTISKPSSTTVLLQITSLTAADTATYFCATTHGDYVAFKLWGPGTLVTVSS VL: QVLTQTASSVSAAVGGTVTINCQSSQSVYKNNDLSWYQQKPRQPPKLLIYQASKLASGVPSRFKGSGSGTQFTLTIGDLECDDGATYYCAGGYTASIYAFGGGTEVVVKG	0.198
scFv-minibody SEQ ID 39 (scFv) scFv: EVQLVESGGGLVQPGGSLRLSCAASGFSFSSGYDMCWVRQAPGKGLEWVACIDTDNDATYYADSVKGRFTISKDSSKNTLYLQMNSLRAEDTAVYYCARTHGDYVAFKLWGQGTLVTVSGGGSGGGSGGGSGGGSDIQMTQSPSSLSASVGDRVTITCQSSQSVYKNNDLSWYQQKPGKAPKLLIYQASKLASGVPSRFSGSGSGTDFTLTISSLQPEDFATYYCAGGYTASIYAFGQGTKVEIKGSGSSGQPREPQVYTLPPSREEMTKNQVSLTCLVKGFYPSDIAVEWESQGSPENNYKTTPPVLDSDGSFFLYSKLTVDKSRWQQGNVFSCSVMHEALHNHYTQKSLSLSPGSSSSSSAWSHPQFEK	0.105
scFv-minibody SEQ ID 38 (scFv) scFv: EVQLVESGGGLVQPGGSLRLSCAASGFSFSSGYDMCWVRQAPGKGLEWVACIDTDNDATYYASWAKGRFTISKDSSKNTLYLQMNSLRAEDTAVYYCARTHGDYVAFKLWGQGTLVTVSGGGSGGGSGGGSGGGSDIQMTQSPSSLSASVGDRVTITCQSSQSVYKNNDLSWYQQKPGKAPKLLIYQASKLASGVPSRFSGSGSGTDFTLTISSLQPEDFATYYCAGGYTASIYAFGQGTKVEIKGSGSSGQPREPQVYTLPPSREEMTKNQVSLTCLVKGFYPSDIAVEWESQGSPENNYKTTPPVLDSDGSFFLYSKLTVDKSRWQQGNVFSCSVMHEALHNHYTQKSLSLSPGSSSSSSAWSHPQFEK	0.114
